FYI, the data here is from patent US4870210A.

System: synthesis of the arachidonic acid cyclooxygenase oxidation product TxB2
Experimental Protocol: inhibition of the synthesis of the cyclooxygenase oxidation product TxB2 by rat polymorphonuclear leukocytes
Assay type: cell-based, rat (female Wistar)
Condition Context: Leukocyte; rat PMN, A23187 stimulated
Observed Property: IC50
Include the unit after the number when you answer.

stdin: Which measured IC50 belongs to CC(=NNC(=N)N)c1cccc(OCc2ccc3ccccc3c2)c1 , tested on synthesis of the arachidonic acid cyclooxygenase oxidation product TxB2?
stdout: 11.2 µM

###

Tested on: synthesis of LTB4 by rat glycogenelicited polymorphonuclear leukocytes (PMN)
Experimental Protocol: inhibition of the synthesis of LTB4 (lipoxygenase oxidation product) by rat glycogen-elicited polymorphonuclear leukocytes (PMN)
Assay type: cell-based, rat (female Wistar)
Condition Context: Leukocyte, A23187 stimulated
Observed Property: pIC50
The meaning of pIC50 here: minus log10 of the concentration in molar units.

stdin: Requested read-out: pIC50. Entry: CC(=NNC(=N)N)c1cccc(OCc2ccc3ccccc3c2)c1 [Example 1]
stdout: 5.05
